method: Thermodynamic solubility assay (PBS pH 6.5; isopropyl myristate)
Type: physicochemical
protocol.conditions: oil or lipid, thermodynamic from solid, isopropyl myristate as vehicle, about 25° C., read-out: Thermodynamic Solubility in Isopropyl Myristate
readout.name: solubility thermodynamic at 24 h

- C[C@@H]1CCN(C(=O)CC#N)C[C@@H]1N(C)c1ncnc2c1ccn2C(=O)N(C)CCOC(=O)C1CCC1: 1250 µg/mL
- C[C@@H]1CCN(C(=O)CC#N)C[C@@H]1N(C)c1ncnc2c1ccn2C(=O)N(C)CCOC(=O)CC1CCC1: 1200 µg/mL
- CCC(CC)C(=O)OCCN(C)C(=O)n1ccc2c(N(C)[C@H]3CN(C(=O)CC#N)CC[C@H]3C)ncnc21: 1830 µg/mL
- CCCC(CC)C(=O)OCCN(C)C(=O)n1ccc2c(N(C)[C@H]3CN(C(=O)CC#N)CC[C@H]3C)ncnc21 (stereo partly shown): 339 µg/mL
- C[C@@H]1CCN(C(=O)CC#N)C[C@@H]1N(C)c1ncnc2c1ccn2C(=O)N(C)CCOC(=O)C1CCC(F)(F)CC1: 1020 µg/mL
- C[C@@H]1CCN(C(=O)CC#N)C[C@@H]1N(C)c1ncnc2c1ccn2C(=O)N(C)CCOC(=O)C1CCOC1 (stereo partly shown): 208 µg/mL
- C[C@@H]1CCN(C(=O)CC#N)C[C@@H]1N(C)c1ncnc2c1ccn2C(=O)N(C)CCOC(=O)C1CCCC1: 1530 µg/mL
